# credit: patent US6168954A

test: GST conjugation activity with alachlor (HPLC); assay type: biochemical; conditions: 0.4 mM electrophilic substrate, 4 mM glutathione, 0.1 M MOPS pH 7.0, corrected for uncatalyzed reaction
parameter: Activity of soybean GST enzyme, Alachlor (nmol/min/mg)
Quick reminder: number only, in nmol/min/mg, skip the unit.

- ses8w.pk0028.c6: soybean type III GST encoded by cDNA insert in clone ses8w.pk0028.c6 (protein) MAANQEDVKLLGATGSPFVCRVQIALKLKGVQYKFLEENLRNKSELLLKSNPVHKKVPVFIHNEKPIAESLVIVEYIDETWKNNPILPSDPYQRALARFWSKFIDDKVVGAAWKYIYTVDEKEREKNVEESYEALQFLENELKDKKFFGGEEIGLVDIAAVFIAFWIPIIQEVLGLKLFTSEKFPKLYKWSQEFINHPVVKQVLPPRDQLFAFYKACHESLSASK: 10

# Activity of soybean GST enzyme, Alachlor (molecule: ssl.pk0002.f7: soybean type III GST encoded by cDNA insert in clone ss1.pk0002.f7 (protein) MADGVVLLDTWASMFGMRVRIALAEKGVEYEYKEENLRNKSPLLLQMNPIHKKIPVLIHNGKPICESAIIVQYIDEVWNDKAPILPSDPYERAQARFWVDYIDKKVYDTWRKMWLSKGEEHEAGKKEFISIFKQLEETLSDKAYYGSDTFGFLDIGLIPFYSWFYTFETYGNFKMEEECPKLVAWAKRCMQREAVSKSLS ) is 30
